Note to self: these molecules have Ki reported for Carbonic anhydrase 7 (Homo sapiens) in various publications.
Provide the reading as a plain figure in nM.

NS(=O)(=O)c1ccc(NC(=O)Cc2ccccc2)cc1: 4.7
NS(=O)(=O)c1ccc(CNC(=O)CN2C(=O)NC3(CCCCCC3)C2=O)cc1: 3.7
Cc1ccc2oc(=O)c(C(=O)O)cc2c1: 29600
NS(=O)(=O)c1nnc(NC(=O)C23CC4CC(CC(C4)C2)C3)s1: 35
O=C(O)/C=C/c1ccc(O)cc1: 5230
NS(=O)(=O)c1ccc(NC(=O)/C(Cl)=N/Nc2ccc(F)cc2)cc1: 46.6

For the next question, use this molecule.
Need Ki of CC(=O)OC[C@H]1O[C@@H]([Se]c2ccc(NC(=O)c3ccc(S(N)(=O)=O)cc3)cc2)[C@H](OC(C)=O)[C@@H](OC(C)=O)[C@H]1OC(C)=O , thanks.
0.7
